experiment: Metabolic stability test, rat; type: in vitro ADME; conditions: 30 minutes
Would you mind telling me the reported Remaining amount of compound, Rat of each entry?
Quick note: give the figure in %, leave out the unit.

QUERY: Fill blank: measured Remaining amount of compound, Rat of the molecule CC(=O)N[C@@H](CF)COC1CCC(Oc2nc3c(F)cc(OC4CC4)cc3n2C)CC1 (stereo partly drawn) is ____.
RESULT: 87.3

QUERY: Query (molecule): C[C@@H](COC1CCC(Oc2nc3c(Cl)cc(OC4CC4)cc3n2C)CC1)NC(N)=O (stereo partly drawn) ; field requested: Remaining amount of compound, Rat
RESULT: 85.4

QUERY: Which Remaining amount of compound, Rat is reported for this molecule? CC(=O)N[C@@H](C)COC1CCC(Oc2nc3c(Cl)cc(OC4CC4)cc3n2C)CC1 (stereo partly drawn)
RESULT: 82.6

QUERY: Quick check: Remaining amount of compound, Rat of CC(=O)N[C@@H](C)CCC1CCC(Oc2nc3c(F)cc(OC4CC4)cc3n2C)CC1 (stereo partly drawn) ?
RESULT: 76.2

QUERY: Would you kindly share the measured Remaining amount of compound, Rat for CC(=O)N[C@@H](C)C(F)(F)C[C@H]1CCC(Oc2nc3c(F)cc(OCC(F)F)c(F)c3n2C)CO1 (stereo partly drawn) ?
RESULT: 74.7

QUERY: Name the reported Remaining amount of compound, Rat value associated with the molecule Cn1c(OC2CCC(OC[C@H](CF)NC(N)=O)CC2)nc2c(F)cc(OC3CC3)cc21 (stereo partly drawn)
RESULT: 83.4

QUERY: Look up Remaining amount of compound, Rat: C[C@@H](COC1CCC(Oc2nc3c(F)cc(OC4CC4)cc3n2C)CC1)NC(N)=O (stereo partly drawn)
RESULT: 85.5

QUERY: Quick one: Remaining amount of compound, Rat of C[C@@H](CCC1OCC(Oc2nc3c(F)cc(OCC(F)F)c(F)c3n2C)CO1)NC(N)=O (stereo partly drawn) ?
RESULT: 94.5

QUERY: Find the recorded Remaining amount of compound, Rat belonging to CC(=O)N[C@@H](C)CCC1OCC(Oc2nc3c(F)c(OC4CC4)ccc3n2C)CO1 (stereo partly drawn) and report it.
RESULT: 87

----------
target: recombinant human ACC2 (Homo sapiens (Human), UniProt O00763); assay: Measurement of inhibitory activity of human ACC2 (MALDI-TOF MS); conditions: read-out: IC50 hACC2
Sequence (O00763 27-2458): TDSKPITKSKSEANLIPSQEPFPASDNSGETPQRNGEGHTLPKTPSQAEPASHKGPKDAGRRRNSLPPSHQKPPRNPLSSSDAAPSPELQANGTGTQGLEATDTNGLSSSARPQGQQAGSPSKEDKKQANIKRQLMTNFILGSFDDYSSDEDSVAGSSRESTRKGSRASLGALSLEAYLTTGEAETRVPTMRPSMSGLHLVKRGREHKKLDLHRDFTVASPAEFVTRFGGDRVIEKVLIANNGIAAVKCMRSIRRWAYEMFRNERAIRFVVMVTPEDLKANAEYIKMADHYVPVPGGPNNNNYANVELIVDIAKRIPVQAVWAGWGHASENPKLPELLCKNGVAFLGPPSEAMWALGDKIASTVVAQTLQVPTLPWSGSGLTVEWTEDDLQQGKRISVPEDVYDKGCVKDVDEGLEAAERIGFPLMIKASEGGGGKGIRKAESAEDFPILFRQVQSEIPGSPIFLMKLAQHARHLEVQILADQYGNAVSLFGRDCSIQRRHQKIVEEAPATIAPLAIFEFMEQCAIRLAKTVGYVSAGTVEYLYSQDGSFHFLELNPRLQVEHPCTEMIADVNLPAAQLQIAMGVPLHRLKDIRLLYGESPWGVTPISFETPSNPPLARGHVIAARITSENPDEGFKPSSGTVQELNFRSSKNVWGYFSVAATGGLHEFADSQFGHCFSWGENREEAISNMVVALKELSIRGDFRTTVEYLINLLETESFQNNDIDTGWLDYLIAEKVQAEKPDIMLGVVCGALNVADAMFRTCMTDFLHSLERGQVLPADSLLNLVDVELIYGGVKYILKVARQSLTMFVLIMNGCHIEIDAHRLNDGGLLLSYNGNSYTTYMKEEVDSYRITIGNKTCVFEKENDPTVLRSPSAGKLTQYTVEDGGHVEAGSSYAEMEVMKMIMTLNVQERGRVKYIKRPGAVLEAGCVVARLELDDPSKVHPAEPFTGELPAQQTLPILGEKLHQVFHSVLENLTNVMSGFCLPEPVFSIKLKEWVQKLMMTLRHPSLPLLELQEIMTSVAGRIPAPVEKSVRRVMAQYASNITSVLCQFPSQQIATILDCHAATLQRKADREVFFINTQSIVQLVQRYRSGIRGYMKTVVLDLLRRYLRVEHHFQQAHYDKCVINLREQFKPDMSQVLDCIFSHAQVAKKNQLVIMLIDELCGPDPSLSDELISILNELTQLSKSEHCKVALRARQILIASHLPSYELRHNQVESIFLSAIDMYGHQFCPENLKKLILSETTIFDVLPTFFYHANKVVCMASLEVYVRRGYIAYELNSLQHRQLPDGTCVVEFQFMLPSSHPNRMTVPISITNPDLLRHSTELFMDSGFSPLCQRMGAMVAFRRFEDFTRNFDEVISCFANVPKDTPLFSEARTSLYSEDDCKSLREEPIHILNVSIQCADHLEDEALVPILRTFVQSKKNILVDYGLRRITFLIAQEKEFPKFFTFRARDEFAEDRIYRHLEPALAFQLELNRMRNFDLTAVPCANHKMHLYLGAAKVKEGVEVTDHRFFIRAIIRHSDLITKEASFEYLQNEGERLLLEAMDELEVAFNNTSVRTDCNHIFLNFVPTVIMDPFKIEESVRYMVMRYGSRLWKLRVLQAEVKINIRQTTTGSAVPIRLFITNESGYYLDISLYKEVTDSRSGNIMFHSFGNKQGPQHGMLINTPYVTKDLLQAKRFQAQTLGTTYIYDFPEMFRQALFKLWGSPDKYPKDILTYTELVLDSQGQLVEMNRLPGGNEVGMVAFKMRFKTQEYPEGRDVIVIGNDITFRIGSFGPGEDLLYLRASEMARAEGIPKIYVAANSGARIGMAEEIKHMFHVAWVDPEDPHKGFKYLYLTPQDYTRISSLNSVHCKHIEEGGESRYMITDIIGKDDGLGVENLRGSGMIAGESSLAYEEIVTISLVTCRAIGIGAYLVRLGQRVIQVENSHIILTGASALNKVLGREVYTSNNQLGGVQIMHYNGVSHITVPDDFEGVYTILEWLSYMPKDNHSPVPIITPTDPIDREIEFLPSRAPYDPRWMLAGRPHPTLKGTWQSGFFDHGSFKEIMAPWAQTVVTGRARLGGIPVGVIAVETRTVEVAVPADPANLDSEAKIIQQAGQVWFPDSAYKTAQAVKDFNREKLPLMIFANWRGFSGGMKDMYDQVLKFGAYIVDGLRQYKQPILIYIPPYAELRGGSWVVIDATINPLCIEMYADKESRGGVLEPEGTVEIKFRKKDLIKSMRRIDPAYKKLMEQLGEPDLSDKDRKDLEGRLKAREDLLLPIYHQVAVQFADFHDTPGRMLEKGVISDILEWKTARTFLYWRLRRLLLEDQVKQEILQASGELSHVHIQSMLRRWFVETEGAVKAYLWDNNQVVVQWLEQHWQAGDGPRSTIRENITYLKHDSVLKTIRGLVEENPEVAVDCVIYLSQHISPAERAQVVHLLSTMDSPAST
Consider the following molecules; for each one, report its pIC50.
# pIC50: negative log10 of molar concentration; output just the value

QUERY: Enter reported pIC50 observed with recombinant human ACC2 (Homo sapiens (Human), UniProt O00763) for C[C@@H](COC1CCC(Oc2nc3c(Cl)cc(OC4CC4)cc3n2C)CC1)NC(N)=O (stereo partly drawn)
RESULT: 7.77

QUERY: Test system recombinant human ACC2 (Homo sapiens (Human), UniProt O00763); read-out pIC50; what value for CC(=O)N[C@@H](C)CCC1CCC(Oc2nc3c(F)cc(OC4CC4)cc3n2C)CC1 (stereo partly drawn) ?
RESULT: 8.42

QUERY: Give recorded pIC50 with recombinant human ACC2 (Homo sapiens (Human), UniProt O00763) for the following molecule: C[C@@H](COC1CCC(Oc2nc3c(F)cc(OC4CC4)cc3n2C)CC1)NC(N)=O (stereo partly drawn)
RESULT: 8.25

QUERY: Enter reported pIC50 observed with recombinant human ACC2 (Homo sapiens (Human), UniProt O00763) for C[C@@H](CCC1OCC(Oc2nc3c(F)cc(OCC(F)F)c(F)c3n2C)CO1)NC(N)=O (stereo partly drawn)
RESULT: 8.02

QUERY: Checklist item: pIC50 tested on recombinant human ACC2 (Homo sapiens (Human), UniProt O00763), entry Cn1c(OC2CCC(OC[C@H](CF)NC(N)=O)CC2)nc2c(F)cc(OC3CC3)cc21 (stereo partly drawn) , value?
RESULT: 8.05

QUERY: Requested read-out pIC50, target or system recombinant human ACC2 (Homo sapiens (Human), UniProt O00763), entry CC(=O)N[C@@H](CF)COC1CCC(Oc2nc3c(F)cc(OC4CC4)cc3n2C)CC1 (stereo partly drawn)
RESULT: 8.33

QUERY: // fetch recombinant human ACC2 (Homo sapiens (Human), UniProt O00763) pIC50 for CC(=O)N[C@@H](C)C(F)(F)C[C@H]1CCC(Oc2nc3c(F)cc(OCC(F)F)c(F)c3n2C)CO1 (stereo partly drawn)
RESULT: 6.74

QUERY: # get_value(readout= pIC50, system= recombinant human ACC2 (Homo sapiens (Human), UniProt O00763)) for CC(=O)N[C@@H](C)CC(F)(F)[C@@H]1CCC(Oc2nc3c(F)cc(OCC(F)F)c(F)c3n2C)CO1 (stereo partly drawn)
RESULT: 7.05

QUERY: What is its pIC50 for recombinant human ACC2 (Homo sapiens (Human), UniProt O00763)? Entry: CC(=O)N[C@@H](C)CCC1OCC(Oc2nc3c(F)c(OC4CC4)ccc3n2C)CO1 (stereo partly drawn)
RESULT: 8.18
